biological target: Muscarinic acetylcholine receptor M4 (Homo sapiens); assay: M4-linked GIRK flux change, two-sided – cell-based, HEK293 M4/GIRK, thallium flux, BTC-AM, M4 allosteric agonist project, primary screen (AID 625); conditions: at 10 µM, actives lie on both sides;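 further: thallium influx through GIRK channels coupled to M4 in HEK293 cells with BTC-AM dye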
This listing pairs compounds with measured fluorescence slope.
Please give only the number in your answer, with no unit.

Sample answers from the record:
Cn1c(O)c(C=NCCCNC2CCCCC2)c(=O)n(C)c1=O
0.00413
O=P(c1ccccc1)(c1ccccc1)N1CCCCC1
0.00417
COc1ccc(CCNC(=O)c2c(N)n(CCN3CCOCC3)c3nc4ccccc4nc23)cc1
0.00515
Cc1ccc(CS(=O)(=O)CCC(=O)N2CCC3(CC2)OCCO3)cc1
0.00375
Cn1c(O)c(C=NCc2ccco2)c(=O)n(C)c1=O
0.00416

Requested read-out: fluorescence slope. Entry: Cn1c(=O)cc(SCC(=O)N2CCC3(CC2)OCCO3)c2ccc(Cl)cc21
0.00629

# lookup: fluorescence slope of O=C1NC(=O)C(C/C=C/c2ccccc2)C(=O)N1
0.00573

Look at this compound and give its reported fluorescence slope. Nc1ncc(P(=S)(N2CCOCC2)N2CCOCC2)s1
0.00503

Look up fluorescence slope for this compound: CCOC(=O)C(O)(c1ccc(N(CC)C(=O)OC)cc1)C(F)(F)F (centres undefined)
0.00401

Looking for the measured fluorescence slope of CC1(c2ccccc2)NCCN2C(=O)CSC21 (centres undefined) , can you help?
0.00532

Could you share which fluorescence slope value was measured for O=C1C2CCCN2C(c2ccc(Cl)c(Cl)c2)N1c1ccccn1 (centres undefined) ?
0.00578

Query: fluorescence slope; subject: C=CCOC(=O)C1=C(C)OC(N)=C(C#N)[C@@]12C(=O)N(CC(N)=O)c1ccccc12
0.00506

* * *

test: TLR3 IRF3 reporter activation blockers – cell-based, poly I:C stimulus, luciferase, 10K MLSCN set, primary screen (AID 602277); details: HEK293-TLR3 RL24 IRF3 luciferase reporter, at 10 µM
The source made the active and inactive calls.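 How the source made its calls: active means inhibition of the reporter signal at or above 50%; inactive means inhibition below 50%.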
Reply using exactly one outcome from active, inactive

Solved entries:
O=C(c1sc2ccccc2c1Cl)N1CCC2(CC1)OCCO2
inactive
CCN1CCN(c2ncnc3ccc(Br)cc23)CC1
inactive
CCN1CCN(C(=O)COc2cc(=O)n(CC)c3ccccc23)CC1
inactive
CN1C(=O)CN=C(c2ccc(Cl)cc2)c2cc(Cl)ccc21
inactive
CCCNC(=O)c1c(N)n(Cc2ccc3c(c2)OCO3)c2nc3ccccc3nc12
inactive

Now for a further molecule.
Given c1ccc2c3c([nH]c2c1)CNCC3 , state the outcome it received in this test.
active

* * *

experiment: inhibitors of TNFa-induced NFkB p65 translocation, primary screen, imaging, HUVEC, MLSMR starter and 10KST1 sets (AID 438); conditions: HUVEC TNFa-induced p65 nuclear translocation; at 2 µM, stronger effect = higher value unless noted;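 further: compound added about 3h40 before a 20 min TNFalpha stimulation; signal is the nuclear over cytoplasmic p65 intensity ratio per well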
Active and inactive are the calls of the source.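 How the source made its calls: active means inhibition above 20% together with a positive visual image hit; inconclusive means visual image hit but inhibition not above 20%; inactive means no visual image hit.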
Listed next: entries and their corresponding inhibition.

Completed entries (count: 3):
O=C1c2ccccc2C(=O)N1Cc1nc2ccccc2c(=O)n1-c1cccnc1
-17.5% (inactive)
CN1[C@@H]2CC[C@H]1CC(OC(=O)C1C=Nc3ccccc31)C2 (stereo partly drawn)
0.8% (inactive)
CCOC(=O)c1cccc([P+](=O)O)c1
0% (inactive)

Quick check: inhibition of COc1ccc(Cn2c(O)c(C=NCCCn3ccnc3)c(=O)[nH]c2=O)cc1 ?
-0.7% (inactive)

Reported inhibition, molecule CC(=O)Nc1ccc(OC(=O)c2ccccc2N)cc1 : ____
-3.4% (inactive)

Which inhibition value belongs to COc1ccc(C2NCc3ccc4c(c3-n3cccc32)OCO4)cc1O (stereo not drawn) ?
9.5% (inactive)
